assayedTarget: μ receptor (Rattus norvegicus)
Construct: the brains (minus the cerebellum) were removed, placed in ice-cold saline solution, and then homogenized; from tissue; host or cells: rat brain (minus cerebellum) membranes
Sequence (P33535 whole entry): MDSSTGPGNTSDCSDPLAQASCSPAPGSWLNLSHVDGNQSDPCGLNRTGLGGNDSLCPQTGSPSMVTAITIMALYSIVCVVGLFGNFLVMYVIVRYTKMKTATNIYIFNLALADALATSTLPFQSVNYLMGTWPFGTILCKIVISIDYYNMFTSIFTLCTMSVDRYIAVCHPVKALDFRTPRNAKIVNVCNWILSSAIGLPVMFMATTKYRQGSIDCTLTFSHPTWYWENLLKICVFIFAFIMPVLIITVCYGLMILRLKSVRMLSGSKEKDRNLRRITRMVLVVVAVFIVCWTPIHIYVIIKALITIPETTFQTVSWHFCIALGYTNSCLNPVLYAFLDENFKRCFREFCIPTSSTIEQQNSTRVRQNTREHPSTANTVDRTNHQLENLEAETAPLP
protocolNotes: Radioligand binding assay, μ opioid receptor ((3H)-DAMGO, brain membranes)
settings: Table 2; selectivity ratio
Square brackets hold non-standard residues; d marks the D form. Peptide text beside a SMILES is read from it. Phe(4-F) = N[C@@H](Cc1ccc(F)cc1)C(=O)O
Listed here: items and their measured Binding Assay Kiδ Kiμ.

| compound | Binding Assay Kiδ Kiμ |
| --- | --- |
| C[C@@H](NC(=O)[C@@H](N)Cc1ccc(O)cc1)C(=O)N[C@@H](Cc1ccccc1)C(=O)N[C@@H](Cc1ccccc1)C(N)=O [BCH1774, H-Tyr-D-Ala-Phe-Phe-NH2] (H-Y[dA]FF-NH2) | 409 |
| C[C@@H](NC(=O)[C@@H](N)Cc1ccc(O)cc1)C(=O)N[C@@H](Cc1ccc(F)cc1)C(=O)N[C@@H](Cc1ccc(F)cc1)C(N)=O [Compound #1B, H-Tyr-D-Ala-Phe(pF)-Phe(pF)-NH2] (H-Y[dA][Phe(4-F)][Phe(4-F)]-NH2) | 998 |
| N=C(N)NCCC[C@@H](NC(=O)[C@@H](N)Cc1ccc(O)cc1)C(=O)N[C@@H](Cc1ccc(F)cc1)C(=O)N[C@@H](Cc1ccccc1)C(N)=O [Compound #2C, H-Tyr-D-Arg-Phe(pF)-Phe-NH2] (H-Y[dR][Phe(4-F)]F-NH2) | 1671 |
| C[C@@H](NC(=O)[C@@H](N)Cc1ccc(O)cc1)C(=O)N[C@@H](Cc1ccc(F)cc1)C(=O)N[C@@H](Cc1ccccc1)C(N)=O [Compound #1C, H-Tyr-D-Ala-Phe(pF)-Phe-NH2] (H-Y[dA][Phe(4-F)]F-NH2) | 559 |

====

assayedTarget: μ receptor (Rattus norvegicus)
Construct: the brains (minus the cerebellum) were removed, placed in ice-cold saline solution, and then homogenized; from tissue; host or cells: rat brain (minus cerebellum) membranes
protocolNotes: Radioligand binding assay, μ opioid receptor ((3H)-DAMGO, brain membranes)
settings: Binding Assay Kiμ, Table 2
Square brackets hold non-standard residues; d marks the D form. Peptide text beside a SMILES is read from it. Phe(4-F) = N[C@@H](Cc1ccc(F)cc1)C(=O)O

| compound | assayedTarget | resultUnits | Ki |
| --- | --- | --- | --- |
| N=C(N)NCCC[C@@H](NC(=O)[C@@H](N)Cc1ccc(O)cc1)C(=O)N[C@@H](Cc1ccc(F)cc1)C(=O)N[C@@H](Cc1ccccc1)C(N)=O [Compound #2C, H-Tyr-D-Arg-Phe(pF)-Phe-NH2] (H-Y[dR][Phe(4-F)]F-NH2) | μ receptor (Rattus norvegicus) | nM | 0.57 |
| C[C@@H](NC(=O)[C@@H](N)Cc1ccc(O)cc1)C(=O)N[C@@H](Cc1ccc(F)cc1)C(=O)N[C@@H](Cc1ccccc1)C(N)=O [Compound #1C, H-Tyr-D-Ala-Phe(pF)-Phe-NH2] (H-Y[dA][Phe(4-F)]F-NH2) | μ receptor (Rattus norvegicus) | nM | 0.36 |
| N=C(N)NCCC[C@@H](NC(=O)[C@@H](N)Cc1ccc(O)cc1)C(=O)N[C@@H](Cc1ccc(F)cc1)C(=O)N[C@@H](Cc1ccc(F)cc1)C(N)=O [Compound #2B, H-Tyr-D-Arg-Phe(pF)-Phe(pF)-NH2] (H-Y[dR][Phe(4-F)][Phe(4-F)]-NH2) | μ receptor (Rattus norvegicus) | nM | 0.22 |
| C[C@@H](NC(=O)[C@@H](N)Cc1ccc(O)cc1)C(=O)N[C@@H](Cc1ccc(F)cc1)C(=O)N[C@@H](Cc1ccc(F)cc1)C(N)=O [Compound #1B, H-Tyr-D-Ala-Phe(pF)-Phe(pF)-NH2] (H-Y[dA][Phe(4-F)][Phe(4-F)]-NH2) | μ receptor (Rattus norvegicus) | nM | 0.2 |

FYI, the data here is from patent US20030032774A1.
